binders and their reported Kd
# System Name: T1, recombinant human IL-6 (human, UniProt P05231 30-212)
# T1 construct: Bought protein
# T1 sequence (P05231 30-212 limits assumed): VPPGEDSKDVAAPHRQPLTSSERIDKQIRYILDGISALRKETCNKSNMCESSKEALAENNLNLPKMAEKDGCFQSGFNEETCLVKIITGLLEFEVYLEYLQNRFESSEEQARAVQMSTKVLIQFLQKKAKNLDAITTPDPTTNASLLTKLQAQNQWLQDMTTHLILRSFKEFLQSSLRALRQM
# Measurement Description: SPR Biacore, supernatant Ab on Protein A chip, IL-6 analyte, 25 C
# Experimental: Antibodies were captured on a Protein A chip (GE) by injecting 1:20 dilution of cell supernatant at 10 μL/min for 60 seconds. […] The sensor chip was regenerated by a 60 seconds injection of 10 mM Glycine pH 1.7 at flow rate of 50 μL/min. […] For this setup, 1 μg/mL of purified antibody was injected over a Protein A chip at 10 μL/min for 25-28 seconds. Data analysis for supernatant and purified samples were performed using BIAevaluation software (GE). […]
Attribute Measured: Kd

[[record]]
binder = "anti-IL-6 antibody, light chain S55R (heavy chain WT) (antibody, V domains shown, See note of m2; also called WT / S55R) VH: EVQLVESGGGLVQPGGSLRLSCAASGFTFSPFAMSWVRQAPGKGLEWVAKISPGGSWTYYSDTVTGRFTFSLDTSKSTAYLQMNSLRAEDTAVYYCARQLWGYYALDIWGQGTLVTVSS VL: DIQLTQSPSSLSASVGDRVTITCSASISVSYMYWYQQKPGKAPKLLIYDMSNLARGVPSRFSGSGSGTDFTLTISSLQPEDFATYYCMQWSGYPYTFGQGTKVEIK"
attribute_measured = "Kd"
assay_result = "109 pM"

[[record]]
binder = "anti-IL-6 antibody, light chain S51D (heavy chain WT) (antibody, V domains shown, See note of m2; also called WT / S51D) VH: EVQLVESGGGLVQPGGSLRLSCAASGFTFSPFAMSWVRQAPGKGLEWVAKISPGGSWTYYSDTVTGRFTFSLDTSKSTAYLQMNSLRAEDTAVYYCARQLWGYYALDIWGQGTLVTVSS VL: DIQLTQSPSSLSASVGDRVTITCSASISVSYMYWYQQKPGKAPKLLIYDMDNLASGVPSRFSGSGSGTDFTLTISSLQPEDFATYYCMQWSGYPYTFGQGTKVEIK"
attribute_measured = "Kd"
assay_result = "296 pM"

[[record]]
binder = "anti-IL-6 antibody, light chain L53R (heavy chain WT) (antibody, V domains shown, See note of m2; also called WT / L53R) VH: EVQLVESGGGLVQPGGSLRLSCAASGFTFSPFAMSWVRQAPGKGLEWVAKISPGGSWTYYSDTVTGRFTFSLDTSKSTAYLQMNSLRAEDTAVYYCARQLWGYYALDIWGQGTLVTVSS VL: DIQLTQSPSSLSASVGDRVTITCSASISVSYMYWYQQKPGKAPKLLIYDMSNRASGVPSRFSGSGSGTDFTLTISSLQPEDFATYYCMQWSGYPYTFGQGTKVEIK"
attribute_measured = "Kd"
assay_result = "446 pM"

[[record]]
binder = "anti-IL-6 antibody, heavy chain variant I (M34I, G66D, I108V) / light chain variant IV (M32L, M50A, N52S, M88Q) (antibody, V domains shown, See note of m39; also called M34I, G66D, I108V/ M32L, M50A, N52S, M88Q; I/IV) VH: EVQLVESGGGLVQPGGSLRLSCAASGFTFSPFAISWVRQAPGKGLEWVAKISPGGSWTYYSDTVTDRFTFSLDTSKSTAYLQMNSLRAEDTAVYYCARQLWGYYALDVWGQGTLVTVSS VL: DIQLTQSPSSLSASVGDRVTITCSASISVSYLYWYQQKPGKAPKLLIYDASSLASGVPSRFSGSGSGTDFTLTISSLQPEDFATYYCQQWSGYPYTFGQGTKVEIK"
attribute_measured = "Kd"
assay_result = "323 pM"

[[record]]
binder = "anti-IL-6 antibody, light chain L53W (heavy chain WT) (antibody, V domains shown, See note of m2; also called WT / L53W) VH: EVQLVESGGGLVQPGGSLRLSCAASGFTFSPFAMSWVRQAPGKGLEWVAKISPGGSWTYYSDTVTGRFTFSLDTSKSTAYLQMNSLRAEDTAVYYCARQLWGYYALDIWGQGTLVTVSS VL: DIQLTQSPSSLSASVGDRVTITCSASISVSYMYWYQQKPGKAPKLLIYDMSNWASGVPSRFSGSGSGTDFTLTISSLQPEDFATYYCMQWSGYPYTFGQGTKVEIK"
attribute_measured = "Kd"
assay_result = "5.18 pM"

[[record]]
binder = "anti-IL-6 antibody, heavy chain variant II (M34W, G66D, I108V) / light chain variant IV (M32L, M50A, N52S, M88Q) (antibody, V domains shown, See note of m39; also called M34W, G66D, I108V/ M32L, M50A, N52S, M88Q; II/IV) VH: EVQLVESGGGLVQPGGSLRLSCAASGFTFSPFAWSWVRQAPGKGLEWVAKISPGGSWTYYSDTVTDRFTFSLDTSKSTAYLQMNSLRAEDTAVYYCARQLWGYYALDVWGQGTLVTVSS VL: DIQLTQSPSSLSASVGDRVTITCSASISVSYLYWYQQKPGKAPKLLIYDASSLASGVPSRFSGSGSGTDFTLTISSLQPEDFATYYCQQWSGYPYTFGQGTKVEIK"
attribute_measured = "Kd"
assay_result = "297 pM"

[[record]]
binder = "anti-IL-6 antibody, light chain S51R (heavy chain WT) (antibody, V domains shown, See note of m2; also called WT / S51R) VH: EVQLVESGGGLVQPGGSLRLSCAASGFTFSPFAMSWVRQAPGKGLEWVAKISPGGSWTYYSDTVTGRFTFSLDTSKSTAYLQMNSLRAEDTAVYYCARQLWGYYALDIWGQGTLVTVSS VL: DIQLTQSPSSLSASVGDRVTITCSASISVSYMYWYQQKPGKAPKLLIYDMRNLASGVPSRFSGSGSGTDFTLTISSLQPEDFATYYCMQWSGYPYTFGQGTKVEIK"
attribute_measured = "Kd"
assay_result = "463 pM"

[[record]]
binder = "anti-IL-6 antibody, light chain S55L (heavy chain WT) (antibody, V domains shown, See note of m2; also called WT / S55L) VH: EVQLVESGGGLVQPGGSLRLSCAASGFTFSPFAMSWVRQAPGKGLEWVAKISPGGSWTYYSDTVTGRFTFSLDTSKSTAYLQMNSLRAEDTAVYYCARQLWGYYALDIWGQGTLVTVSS VL: DIQLTQSPSSLSASVGDRVTITCSASISVSYMYWYQQKPGKAPKLLIYDMSNLALGVPSRFSGSGSGTDFTLTISSLQPEDFATYYCMQWSGYPYTFGQGTKVEIK"
attribute_measured = "Kd"
assay_result = "329 pM"

[[record]]
binder = "anti-IL-6 antibody, light chain T96L (heavy chain WT) (antibody, V domains shown, See note of m2; also called WT / T96L) VH: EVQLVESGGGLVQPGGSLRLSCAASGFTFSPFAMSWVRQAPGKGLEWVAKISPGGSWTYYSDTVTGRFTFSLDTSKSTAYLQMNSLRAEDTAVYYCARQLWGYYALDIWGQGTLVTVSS VL: DIQLTQSPSSLSASVGDRVTITCSASISVSYMYWYQQKPGKAPKLLIYDMSNLASGVPSRFSGSGSGTDFTLTISSLQPEDFATYYCMQWSGYPYLFGQGTKVEIK"
attribute_measured = "Kd"
assay_result = "259 pM"

[[record]]
binder = "anti-IL-6 antibody, light chain M88A (heavy chain WT) (antibody, V domains shown, See note of m2; also called WT / M88A) VH: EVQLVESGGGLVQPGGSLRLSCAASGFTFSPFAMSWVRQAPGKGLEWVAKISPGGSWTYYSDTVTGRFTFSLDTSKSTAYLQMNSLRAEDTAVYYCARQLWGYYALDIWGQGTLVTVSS VL: DIQLTQSPSSLSASVGDRVTITCSASISVSYMYWYQQKPGKAPKLLIYDMSNLASGVPSRFSGSGSGTDFTLTISSLQPEDFATYYCAQWSGYPYTFGQGTKVEIK"
attribute_measured = "Kd"
assay_result = "282 pM"

